tested on: Calu-3; test: cell viability relative to DMSO; higher = less toxic; conditions: 72 h; 1 nM

# Molecule, Value Unit, cell viability
data = [
    ("O=C(O)[C@H](CC(=O)N1C[C@H]2CCCC[C@H]2C1)Cc1ccccc1 [mitiglinide]", "%", 86.3),
    ("Nc1nc2[nH]cnc2c(=S)[nH]1", "%", 99.6),
    ("NC[C@H]1O[C@H](O[C@H]2[C@H](O)[C@@H](O[C@H]3O[C@H](CO)[C@@H](O)[C@H](N)[C@H]3O)[C@H](N)C[C@@H]2N)[C@H](N)[C@@H](O)[C@@H]1O", "%", 111),
    ("CS(=O)(=O)c1ccc(-c2cnc(NCc3ccco3)n3cnnc23)cc1", "%", 102),
    ("CC(C)(O)CC[C@@H](O)[C@](C)(O)[C@H]1CC[C@@]2(O)C3=CC(=O)[C@@H]4C[C@@H](O)[C@@H](O)C[C@]4(C)[C@H]3CC[C@]12C [20-hydroxyecdysone]", "%", 93.6),
    ("CNCCCC1(c2ccccc2)OC(C)(C)c2ccccc21 (configuration not stated)", "%", 99.4),
    ("OC[C@H]1O[C@@H](n2cnc3c(NC4CCCC4)nc(Cl)nc32)[C@H](O)[C@@H]1O", "%", 105),
]

---

Here the recorded cell viability is given for each entry.
tested on: Vero E6; experiment: cell viability relative to DMSO; higher = less toxic; conditions: 72 h; 1000 nM

# Compound, Value Unit, cell viability
data = [
    ("O=C(O)c1ccc(NC(=O)[C@H](Cc2ccc(O)cc2)NC(=O)c2ccccc2)cc1 [bentiromide]", "%", 99),
    ("C[n+]1cccc(C(=O)[O-])c1", "%", 102),
    ("C[N+]1([O-])[C@@H]2C[C@@H](OC(=O)[C@H](CO)c3ccccc3)C[C@H]1[C@@H]1O[C@@H]12 (stereo partly specified) [scopolamine-N-oxide]", "%", 97.4),
    ("O=C(/C=C/c1ccc(O)c(O)c1)c1ccc(O)cc1O", "%", 99.6),
    ("CC1(C)OC2(C)C(O)CC1CC2O (stereo unspecified)", "%", 98.7),
    ("CCCCCN(CCCOC)C(=O)[C@@H](CCC(=O)O)NC(=O)c1ccc(Cl)c(Cl)c1 [dexloxiglumide]", "%", 96.1),
    ("COc1cccc(C=NCCN=Cc2cccc(OC)c2[O-])c1[O-].[Cl-].[Mn+3]", "%", 105),
    ("N[C@@H](CS(=O)O)C(=O)O", "%", 95.1),
    ("Cc1cccc(C)c1-n1c(=O)c2cnc(Nc3ccc(N4CCN(C)CC4)cc3)nc2n2c3ccccc3nc12", "%", 54.6),
    ("CCOc1c2c(c(OCC)c3ccccc13)C(=O)N(c1ccc(CC(=O)NS(=O)(=O)c3ccccc3)cc1)C2", "%", 89.1),
    ("C[N+](C)(C)CCOC(N)=O", "%", 97.2),
    ("CC1(N2CCC(n3c([C@@H]4CCCNC4)nc4ccccc43)CC2)CCCCCCC1", "%", 99),
    ("C=CCNc1c(O)cc2c(O)c1C[C@@H](C)C[C@H](OC)[C@H](O)[C@@H](C)/C=C(\\C)[C@H](OC(N)=O)[C@@H](OC)/C=C\\C=C(/C)C(=O)N2", "%", 53.3),
    ("CC[C@H]1OC(=O)[C@H](C)[C@@H](O[C@H]2C[C@@](C)(OC)[C@@H](O)[C@H](C)O2)[C@H](C)[C@@H](O[C@@H]2O[C@H](C)C[C@H](N(C)C)[C@H]2O)[C@](C)(O)C[C@@H](C)C(=O)[C@H](C)[C@@H](O)[C@]1(C)O", "%", 97.4),
    ("O=C(Nc1ccccc1C(=O)Nc1ccc(CCO)cc1)c1ccc([N+](=O)[O-])cc1", "%", 92.6),
    ("CCc1cncnc1N1CCN(Cc2nc3cc(C(F)(F)F)ccc3[nH]2)CC1", "%", 101),
]

Values were extracted from the supplement of paper PMC13380429.
